- TEST PROTOCOL: Cytotoxicity against human HepG2 cells after 48 hrs by CellTiter Glo assay
- Assay type: cell-based
Reported CC50 at 48 h values are given for each entry in this list.

Check out these entries, answers already filled in.
INSERT INTO results (entry_smiles, measure_name, result) VALUES
  ('CNS(=O)(=O)c1ccc2c(c1)CCN2C(=O)c1ccc(C)s1', 'CC50 at 48 h', '> 100 µM'),
  ('O=S1(=O)C[C@H](O)[C@@H](N2CCC(c3ccccc3Cl)CC2)C1', 'CC50 at 48 h', '> 100 µM'),
  ('O=S1(=O)C[C@H](O)[C@@H](N2CCN(c3ccc(F)cc3Cl)CC2)C1', 'CC50 at 48 h', '> 100 µM'),
  ('O=S1(=O)C[C@H](O)[C@@H](N2CCN(c3ccccc3Cl)CC2)C1', 'CC50 at 48 h', '> 50 µM');

Now turn to the next compound.
Task: Request the reported CC50 at 48 h associated with CNS(=O)(=O)c1ccc2c(c1)CCN2C(=O)c1ccccc1F
Output: > 100 µM

* * *

Reported CLH values are given for each entry in this list.
- TEST PROTOCOL: Intrinsic clearance in mouse liver microsomes incubated for 30 mins and measured up to 30 mins by LC-MS/MS analysis
- Format: ADME, Microsome
- TEST CONDITIONS: 0.5 h
Return type: number; implicit unit mL/min/g.

Check out these entries, answers already filled in.
INSERT INTO assay_data (entry_smiles, measure_name, recorded_number) VALUES
  ('O=S1(=O)C[C@H](O)[C@@H](N2CCC(c3ccccc3Cl)CC2)C1', 'CLH', 73.7),
  ('CNS(=O)(=O)c1ccc2c(c1)CCN2C(=O)c1ccc(C)s1', 'CLH', 27.1),
  ('CNS(=O)(=O)c1ccc2c(c1)CCN2C(=O)c1ccccc1F', 'CLH', 39.5);

Now turn to the next molecule.
Task: Request the reported CLH associated with O=S1(=O)C[C@H](O)[C@@H](N2CCN(c3ccccc3Cl)CC2)C1
Output: 15.7

* * *

- TEST PROTOCOL: Cytotoxicity against human HepG2 cells after 24 hrs by CellTiter 96 AQueous One Solution Cell Proliferation assay
- Assay type: cell-based
MEASURE NAME: CC50 at 24 h

Task: Request the reported CC50 at 24 h associated with O=C(O)CCc1c[nH]c2ccccc12
Output: > 1000 µM

* * *

- TEST PROTOCOL: Intrinsic clearance in mouse liver microsomes at 1 uM in presence of NADPH measured up to 60 mins by LC-MS/MS analysis
- Type: ADME, Microsome
- TEST CONDITIONS: read-out: CLH
MEASURE NAME: microsomal CLint at 1 µM (µL/min/mg)
Return type: number; implicit unit µL/min/mg.

Task: Request the reported microsomal CLint at 1 µM associated with N#C[C@@H]1N[C@@H](CO)[C@H]1c1ccc(-c2ccccc2F)cc1
Output: 336

* * *

- TEST PROTOCOL: Cytotoxicity against human HepG2 cells
- Type: cell-based
MEASURE NAME: CC50

Task: Request the reported CC50 associated with N#C[C@@H]1N[C@@H](CO)[C@H]1c1ccc(-c2ccccc2F)cc1
Output: > 100 µM
